Below is a list of entries, each paired with its recorded IC50 value.
system: KB cells; test: Suppression of KB cell proliferation in vitro; assay type: cell-based; conditions: Homo sapiens, 72 h, 3 days exposure, Trypan Blue dye-exclusion, read-out: KB IC50 (50% inhibition density to tumor cell proliferation)
Field: numeric (µg/mL). Do not append units.

Some solved entries appear below for comparison.
| smiles-structure | study-system | experimental-endpoint | readout-value |
| --- | --- | --- | --- |
| C[Si](CCSCCNC(=O)n1cc(F)c(=O)[nH]c1=O)(c1ccccc1)c1ccccc1 | KB cells | IC50 | 4 |
| CC[Si](CC)(CC)CCSCCNC(=O)n1cc(F)c(=O)[nH]c1=O | KB cells | IC50 | 13 |
| CCCC[Si](C)(C)CCSCCNC(=O)n1cc(F)c(=O)[nH]c1=O | KB cells | IC50 | 12 |
| CC(C)[Si](C)(C)CCCSCCCNC(=O)n1cc(F)c(=O)[nH]c1=O | KB cells | IC50 | 13 |

Alright, here's another compound for you.
QUERY: Query for KB cells: what IC50 does the record show for CC(C)(C)[Si](C)(C)CCCSCCNC(=O)n1cc(F)c(=O)[nH]c1=O ?
RESULT: 13

Source listed as patent US4778797A.
